Ki data for UniProt:P29274 follow.
Sequence (P29274 whole entry): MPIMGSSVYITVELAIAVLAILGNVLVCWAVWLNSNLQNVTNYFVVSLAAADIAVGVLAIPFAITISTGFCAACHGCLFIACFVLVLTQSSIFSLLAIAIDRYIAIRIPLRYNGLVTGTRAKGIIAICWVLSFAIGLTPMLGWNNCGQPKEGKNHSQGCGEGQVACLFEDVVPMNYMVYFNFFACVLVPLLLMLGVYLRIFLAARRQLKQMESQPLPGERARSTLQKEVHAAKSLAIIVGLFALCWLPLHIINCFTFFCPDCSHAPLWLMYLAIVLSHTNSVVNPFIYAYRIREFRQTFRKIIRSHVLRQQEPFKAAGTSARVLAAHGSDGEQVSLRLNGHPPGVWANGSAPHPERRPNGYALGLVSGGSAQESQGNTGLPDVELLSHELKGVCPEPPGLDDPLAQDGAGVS
Where a name gives a salt, the structure may show the parent alone.
Write it as a number; the unit nM goes unstated.

Reported UniProt:P29274 Ki for item CCC(=O)N[C@H]1C[C@@H](n2cnc3c(NCC(c4ccccc4)c4ccc(F)cc4)nc(NC4CCC(N)CC4)nc32)[C@H](O)[C@@H]1O (some centres unmarked) [Example 38, trifluoroacetate] was 7

Continuing:
The compound CCC(=O)N[C@H]1C[C@@H](n2cnc3c(NCC(c4ccccc4)c4ccc(F)cc4)nc(N4CC[C@@H](NC(=O)N[C@@H]5CCNC5)C4)nc32)[C@H](O)[C@@H]1O (some centres unmarked) [Example 8, trifluoroacetate] , tested on UniProt:P29274, showed Ki of 2

UniProt:P29274 assay, compound CCC(=O)N[C@H]1C[C@@H](n2cnc3c(NCCc4ccccc4-c4ccccc4)nc(N4CC[C@@H](NC(=O)N[C@@H]5CCNC5)C4)nc32)[C@H](O)[C@@H]1O [Example 17, trifluoroacetate] , recorded Ki = 11

Let me check: CCC(=O)N[C@H]1C[C@@H](n2cnc3c(NCC(c4ccc(OC)c(OC)c4)c4ccc(OC)c(OC)c4)nc(N4CC[C@@H](NC(=O)N[C@@H]5CCNC5)C4)nc32)[C@H](O)[C@@H]1O [Example 19, trifluoroacetate] , system UniProt:P29274, measured Ki is 8

Ki on UniProt:P29274 for CCC(=O)N[C@H]1C[C@@H](n2cnc3c(NCC(c4ccc(OC)cc4)c4ccc(OC)cc4)nc(N4CC[C@@H](NC(=O)N[C@@H]5CCNC5)C4)nc32)[C@H](O)[C@@H]1O [Example 7, trifluoroacetate] is 3
